These data points were gathered from patent US11344510B2.

Target: serotonin transporter (SERT) (Homo sapiens, UniProt P31645)
Construct: expressed in transfected cells; host or cells: HEK293
Sequence (P31645 whole entry, species assumed): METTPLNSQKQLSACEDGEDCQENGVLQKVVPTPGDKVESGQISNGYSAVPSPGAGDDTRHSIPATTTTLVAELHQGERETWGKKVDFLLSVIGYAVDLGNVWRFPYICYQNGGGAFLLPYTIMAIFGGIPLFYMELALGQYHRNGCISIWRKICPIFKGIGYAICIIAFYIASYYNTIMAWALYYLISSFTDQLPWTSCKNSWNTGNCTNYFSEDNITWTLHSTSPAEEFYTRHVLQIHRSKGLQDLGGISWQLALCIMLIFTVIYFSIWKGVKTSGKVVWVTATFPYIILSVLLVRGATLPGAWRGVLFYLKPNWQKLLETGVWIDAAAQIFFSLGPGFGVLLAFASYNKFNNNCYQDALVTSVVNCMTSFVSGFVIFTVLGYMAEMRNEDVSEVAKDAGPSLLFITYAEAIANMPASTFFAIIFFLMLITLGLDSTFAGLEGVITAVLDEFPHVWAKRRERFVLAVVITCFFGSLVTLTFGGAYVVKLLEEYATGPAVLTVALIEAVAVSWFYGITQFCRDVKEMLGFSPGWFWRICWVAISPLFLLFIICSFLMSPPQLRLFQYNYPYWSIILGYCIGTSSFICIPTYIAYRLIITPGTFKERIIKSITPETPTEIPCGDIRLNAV
Test: Fluorescent substrate uptake inhibition, SERT
Type: cell-based
Conditions: 10 μM, HEK293 cells expressing SERT
Each record gets a class by inhibition at 10 µM: bucket 1 (below 20%), bucket 2 (20% to below 30%), bucket 3 (30% or more)

Below, 8 molecules whose answers are already recorded.
CNC1(c2ccc(C)cc2)CCCCC1=O (racemic) [Compound 119rac] | bucket 3
O=C1CCCC[C@@]1(NCCO)c1ccccc1 [Compound 30R] | bucket 1
Cc1cccc(C2(N)CCCCC2=O)c1 (racemic) [Compound 118rac, 2-amino-2-(m-tolyl)cyclohexan-1-one] | bucket 1
CC1CCN1C1(c2ccccc2)CCCCC1=O (stereo not shown) [Compound 128mix] | bucket 3
[2H]C([2H])([2H])N[C@@]1(c2ccccc2)CCCCC1=O [Compound 88R] | bucket 2
CN[C@]1(c2ccccc2C)CCCCC1=O [Compound 38S] | bucket 3
O=C1CCCC[C@@]1(NCCF)c1ccccc1 [Compound 86R] | bucket 1
CCN(CC)[C@@]1(c2ccccc2)CCCCC1=O [Compound 25R] | bucket 2

Lookup: // return the class label for CN[C@]1(c2ccccc2)CCCCC1=O [Compound 14S]
Found: bucket 1

Lookup: // return the class label for O=C1CCCC[C@]1(NCCF)c1ccccc1 [Compound 86S]
Found: bucket 1

---

Biological target: serotonin transporter (SERT) (Homo sapiens)
Test: Fluorescent substrate uptake inhibition, SERT
Recorded IC50 values for a group of molecules are listed next.

O=C1CCCC[C@@]1(c1ccccc1)N1CCC1 [Compound 84S] | 0.94 µM
O=C1CCCC[C@]1(c1ccccc1)N1CCC1 [Compound 84R] | 0.8 µM
CC(C)N[C@@]1(c2ccccc2)CCCCC1=O [Compound 28R] | 7.3 µM
O=C1CCCC[C@]1(c1ccccc1)N1CCCCC1 [Compound 26R] | > 100 µM
O=C1CCCC[C@@]1(c1ccccc1)N1CCCCC1 [Compound 26S] | 44 µM

Please examine the following record next.
The reported value for CN[C@@]1(c2ccccc2)CCCCC1=O [Compound 14R] in terms of IC50 is 45.5 µM

---

Biological target: norepinephrine transporter (NET) (Homo sapiens)
Sequence (P23975 whole entry, species assumed): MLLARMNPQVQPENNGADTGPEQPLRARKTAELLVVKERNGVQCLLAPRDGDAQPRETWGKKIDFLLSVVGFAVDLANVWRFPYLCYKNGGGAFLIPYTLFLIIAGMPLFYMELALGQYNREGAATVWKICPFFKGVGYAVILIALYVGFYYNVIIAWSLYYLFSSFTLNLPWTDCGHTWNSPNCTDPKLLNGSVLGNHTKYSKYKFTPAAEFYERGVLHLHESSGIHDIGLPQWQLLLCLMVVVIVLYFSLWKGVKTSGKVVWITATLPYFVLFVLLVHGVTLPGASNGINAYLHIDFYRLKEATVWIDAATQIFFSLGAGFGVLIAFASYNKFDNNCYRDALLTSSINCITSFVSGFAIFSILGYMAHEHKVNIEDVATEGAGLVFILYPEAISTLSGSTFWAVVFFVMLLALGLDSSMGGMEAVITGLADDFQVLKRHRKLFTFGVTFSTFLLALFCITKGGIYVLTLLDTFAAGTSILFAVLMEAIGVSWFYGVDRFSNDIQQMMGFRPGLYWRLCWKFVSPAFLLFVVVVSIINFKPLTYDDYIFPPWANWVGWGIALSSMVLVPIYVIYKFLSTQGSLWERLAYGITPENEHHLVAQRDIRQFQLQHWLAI
Assay: Fluorescent substrate uptake inhibition, NET
measured.endpoint: pIC50
# pIC50: negative log10 of molar concentration; output just the value

O=C1CCCC[C@@]1(c1ccccc1)N1CCCCC1 [Compound 26S] | 5.05

The reported value for CC(C)N[C@]1(c2ccccc2)CCCCC1=O [Compound 28S] in terms of pIC50 is 5.33

The reported value for O=C1CCCC[C@]1(c1ccccc1)N1CCCC1 [Compound 27R] in terms of pIC50 is 4.76

The reported value for O=C1CCCC[C@@]1(c1ccccc1)N1CCC1 [Compound 84S] in terms of pIC50 is 4.53

---

Experiment: MLM stability (Low Activity)
Assay type: in vitro ADME, CD-1 mice
Settings: male, CD-1, mouse, liver microsomes, pH 7.4, Condition 1 (Low Activity), 0.50 mg protein/mL
MET if microsomal CLint at 1 μM is below 30 µL/min/mg. NOT MET if not; exact matches included in NOT MET.

Below, 3 compounds whose answers are already recorded.
CC1CCN1C1(c2ccccc2)CCCCC1=O (stereo not shown) [Compound 128mix] | NOT MET
COCCN[C@]1(c2ccccc2)CCCCC1=O [Compound 29S] | NOT MET
N[C@@]1(c2ccccc2)CCCCC1=O [Compound 11R, (R)-2-amino-2-phenyl-cyclohexan-1-one] | MET

Lookup: Hi there! Is microsomal CLint at 1 μM for Cc1ccccc1[C@]1(N)CCCCC1=O [Compound 114R, (R)-2-amino-2-(o-tolyl)cyclohexan-1-one] below 30 µL/min/mg, do you know?
Found: NOT MET

Lookup: Hi there! Is microsomal CLint at 1 μM for CNC1(c2cccc(C)c2)CCCCC1=O (racemic) below 30 µL/min/mg, do you know?
Found: MET

Lookup: Hi there! Is microsomal CLint at 1 μM for Cc1ccc(C2(N)CCCCC2=O)cc1 (racemic) below 30 µL/min/mg, do you know?
Found: MET

---

Recorded inhibition at 10 µM values for a group of molecules are listed next.
Target: dopamine transporter (DAT) (Homo sapiens)
Construct: expressed in transfected cells; host or cells: CHO (uptake)
Sequence (Q01959 whole entry, species assumed): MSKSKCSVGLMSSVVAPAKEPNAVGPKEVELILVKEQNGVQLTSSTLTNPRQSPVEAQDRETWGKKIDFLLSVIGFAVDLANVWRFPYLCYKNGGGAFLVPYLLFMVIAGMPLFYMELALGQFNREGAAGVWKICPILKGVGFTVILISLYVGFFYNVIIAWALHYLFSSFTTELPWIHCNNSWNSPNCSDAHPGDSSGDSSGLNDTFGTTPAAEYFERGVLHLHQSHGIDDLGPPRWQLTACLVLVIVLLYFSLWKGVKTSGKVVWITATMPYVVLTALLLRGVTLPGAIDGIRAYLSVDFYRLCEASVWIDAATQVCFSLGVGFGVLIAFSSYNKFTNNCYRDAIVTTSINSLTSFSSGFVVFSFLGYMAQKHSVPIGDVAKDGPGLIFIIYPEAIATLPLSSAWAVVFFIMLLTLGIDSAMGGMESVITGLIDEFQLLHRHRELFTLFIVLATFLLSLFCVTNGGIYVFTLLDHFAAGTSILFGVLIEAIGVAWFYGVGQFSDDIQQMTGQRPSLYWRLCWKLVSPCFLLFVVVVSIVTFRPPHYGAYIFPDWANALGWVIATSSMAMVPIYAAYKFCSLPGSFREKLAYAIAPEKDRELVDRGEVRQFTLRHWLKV
Experiment: Fluorescent substrate uptake inhibition, DAT
Assay type: cell-based
Settings: 10 μM, CHO cells expressing DAT

As a guide, the following entries are already answered.
CN[C@@]1(c2ccccc2)CCCCC1=O [Compound 14R] | -4.5%
O=C1CCCC[C@@]1(NCCF)c1ccccc1 [Compound 86R] | 13.6%
CC(C)N[C@]1(c2ccccc2)CCCCC1=O [Compound 28S] | 58%
CC1CN(C2(c3ccccc3)CCCCC2=O)C1 (racemic) | 35.8%
N[C@@]1(c2ccccc2)CCCCC1=O [Compound 11R, (R)-2-amino-2-phenyl-cyclohexan-1-one] | -11.8%
O=C1CCCC[C@@]1(NCCO)c1ccccc1 [Compound 30R] | 8.5%
CNC1(c2ccc(C)cc2)CCCCC1=O (racemic) | 10.3%
NC1(c2ccc(F)cc2)CCCCC1=O (racemic) | 6.8%

The reported value for O=C1CCCC[C@]1(NCCF)c1ccccc1 [Compound 86S] in terms of inhibition at 10 µM is 20.8%

The reported value for O=C1CCCC[C@@]1(c1ccccc1)N1CCOCC1 [Compound 31S] in terms of inhibition at 10 µM is 16.9%

---

Recorded Cmax values for a group of compounds are listed next.
Test: Oral bioavailability in mice, Method A
Assay type: in vivo
Settings: male, mouse, brain, CD-1 mice, 10 mg/kg po
Enter your answer as a number in ng/g; do not include the unit.

The reported value for CNC1(c2ccccc2F)CCCCC1=O (racemic) in terms of Cmax is 1840

---

Measured Ki on NET (Homo sapiens, UniProt P23975) follows.
Sequence (P23975 whole entry, species assumed): as the sequence (P23975 whole entry, species assumed) above
Enter your answer as a number in µM; do not include the unit.

O=C1CCCC[C@@]1(c1ccccc1)N1CCC1 [Compound 84S] | 53.8
O=C1CCCCC1(c1ccccc1)N1CCCC1 (racemic) | 11.5
CC(C)N[C@]1(c2ccccc2)CCCCC1=O [Compound 28S] | 13.5

Please examine the following record next.
Param item: O=C1CCCC[C@]1(c1ccccc1)N1CCC1 [Compound 84R] ; param system: NET (Homo sapiens, UniProt P23975); output Ki: 77.8

---

Test: Oral bioavailability in mice, Method B
Assay type: in vivo
Settings: plasma, CD-1 mice, 10 mg/kg, Method B: based on AUC0-last
Recorded F values for a group of compounds are listed next.
Form entry: enter the amount, then its unit.

As a guide, the following entries are already answered.
N[C@@]1(c2ccccc2)CCCCC1=O [Compound 11R, (R)-2-amino-2-phenyl-cyclohexan-1-one] | 76%
Cc1ccccc1[C@@]1(N)CCCCC1=O [Compound 114S, (S)-2-amino-2-(o-tolyl)cyclohexan-1-one] | 194%

Please examine the following record next.
The reported value for Cc1ccccc1[C@]1(N)CCCCC1=O [Compound 114R, (R)-2-amino-2-(o-tolyl)cyclohexan-1-one] in terms of F is 132%

---

Test: Oral bioavailability in mice, Method A
Assay type: in vivo
Conditions: brain, CD-1 mice, 10 mg/kg po
Where a name gives a salt, the structure may show the parent alone.
Recorded AUC0-inf (po) values for a group of compounds are listed next.

CNC1(c2ccccc2)CCCCC1=O (racemic) [Compound 14rac, hydrochloride] | 192,000 ng*min/g
CN[C@@]1(c2ccccc2)CCCCC1=O [Compound 14R] | 192,000 ng*min/g
CCNC1(c2cccc(OC)c2)CCCCC1=O (racemic) | 11,800 ng*min/g
CNC1(c2ccccc2F)CCCCC1=O (racemic) | 34,200 ng*min/g
CNC1(c2ccccc2OC)CCCCC1=O (racemic) | 135,000 ng*min/g

The reported value for CN[C@]1(c2ccccc2)CCCCC1=O [Compound 14S] in terms of AUC0-inf (po) is 166,000 ng*min/g

The reported value for CNC1(c2ccccc2Cl)CCCCC1=O (racemic) [rac-ketamine, racemic ketamine, reference compound] in terms of AUC0-inf (po) is 6,030 ng*min/g

---

Recorded half-life at 1 μM values for a group of molecules are listed next.
Assay: MLM stability (Low Activity)
Type: in vitro ADME, CD-1 mice
Conditions: male, CD-1, mouse, liver microsomes, pH 7.4, Condition 1 (Low Activity), 0.50 mg protein/mL

As a guide, the following entries are already answered.
N[C@@]1(c2ccccc2)CCCCC1=O [Compound 11R, (R)-2-amino-2-phenyl-cyclohexan-1-one] | > 2.42 h
N[C@]1(c2ccccc2)CCCCC1=O [Compound 11S, (S)-2-amino-2-phenyl-cyclohexan-1-one] | > 2.42 h

Please examine the following record next.
The reported value for NC1(c2ccc(F)cc2)CCCCC1=O (racemic) in terms of half-life at 1 μM is > 2.42 h
